Reported MTD values for the following compounds.
# measurement_notes: MTD determination in mice (Examples 27, 36, 44)
# Format: in vivo
# protocol_conditions: female, mouse, in vivo; mice, monitored for 14 d; Table 4; read-out: MTD

{"compound": "CCc1c2c(nc3ccc(OC(=O)N4CCC(N5CCCCC5)CC4)cc13)-c1cc3c(c(=O)n1C2)COC(=O)[C@]3(O)CC [Irinotecan, reference compound]", "MTD (mg/kg)": 75}
{"compound": "CC[C@@]1(O)C(=O)OCC2=C1C=C1c3nc4ccccc4c(CCN(C(=O)OCc4ccc(NC(=O)[C@H](CC(N)=O)NC(=O)[C@H](C)NC(=O)[C@H](C)NC(=O)CCOCCOCCOCCOCCOCCOCCNC(=O)CCN5C(=O)C=CC5=O)cc4)C(C)C)c3CN1C2", "MTD (mg/kg)": 100}
{"compound": "CC[C@@]1(O)C(=O)OCc2c1cc1n(c2=O)Cc2c-1nc1ccccc1c2CCNC(C)C [Belotecan, reference compound]", "MTD (mg/kg)": 15}
